Target: ERα (Homo sapiens)
Construct: host or cells: MCF7
Sequence (P03372 1-595): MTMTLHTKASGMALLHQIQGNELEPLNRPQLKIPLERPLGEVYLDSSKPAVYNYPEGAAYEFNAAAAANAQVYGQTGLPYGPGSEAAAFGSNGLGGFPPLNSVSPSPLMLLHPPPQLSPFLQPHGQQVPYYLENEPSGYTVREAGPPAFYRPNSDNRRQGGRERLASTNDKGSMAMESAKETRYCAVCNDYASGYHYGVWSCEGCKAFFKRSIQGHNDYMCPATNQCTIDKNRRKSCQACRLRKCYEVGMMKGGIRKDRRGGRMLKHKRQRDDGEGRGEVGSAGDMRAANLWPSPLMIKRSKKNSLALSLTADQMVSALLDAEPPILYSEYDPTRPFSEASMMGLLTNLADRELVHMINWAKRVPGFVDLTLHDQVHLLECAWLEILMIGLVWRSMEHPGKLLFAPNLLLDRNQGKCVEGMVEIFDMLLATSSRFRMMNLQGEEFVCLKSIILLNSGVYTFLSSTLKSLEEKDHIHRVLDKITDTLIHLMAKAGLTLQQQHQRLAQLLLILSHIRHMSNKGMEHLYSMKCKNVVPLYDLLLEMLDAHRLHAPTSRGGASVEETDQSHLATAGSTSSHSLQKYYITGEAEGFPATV
Test: Estrogen receptor degradation activity: breast cancer cell ERα in cell western assay (MCF7 cells)
Assay type: cell-based
Conditions: 0.3 μM, 4 hours, relative to fulvestrant 0.1 μM positive control
Please respond with 1 (yes) when measured % Degradation At 0.3 μM is strictly beneath 90%, and with 0 (no) in all other cases.

Past entries and their recorded results:
1. O=C(O)c1ccc2c(c1)CCCC(CCc1ccccc1)=C2c1ccc(C=C2CN(CCCF)C2)cc1 [Example 168] = 0 (no)
2. O=C(O)c1ccc2c(c1)CCCC(c1ccc3c(c1)CC3)=C2c1ccc(C=C2CN(CCCF)C2)cc1 [Example 8] = 1 (yes)
3. CC1CCc2cc(C(=O)O)ccc2C(c2ccc(C=C3CN(CCCF)C3)cc2)=C1c1ccc(Cl)cc1Cl (racemic) [Example 166] = 0 (no)
4. Cc1cc(F)ccc1C1=C(c2ccc(C=C3CN(CCCF)C3)c(F)c2F)c2ccc(C(=O)O)cc2CCC1 [Example 152] = 0 (no)
5. Cc1ccccc1C1=C(c2ccc(C=C3CN(CCCF)C3)cc2)c2ccc(C(=O)O)cc2CCC1 [Example 99] = 0 (no)

Lab note: next molecule to report on.
Request: Is it true that % Degradation At 0.3 μM reported for Cc1cccc(C)c1C1=C(c2ccc(C=C3CN(CCCF)C3)cc2)c2ccc(C(=O)O)cc2CCC1 [Example 97] is less than 90%?
Result: 0 (no)

###

Parameter: % Degradation At 0.3 μM. Scope: all listed entries.
Biological target: ERα (Homo sapiens, UniProt P03372)
Construct: host or cells: MCF7
Assay: Estrogen receptor degradation activity: breast cancer cell ERα in cell western assay (MCF7 cells)
Type: cell-based
Details: 0.3 μM, 4 hours, relative to fulvestrant 0.1 μM positive control
Protocol: Test: Estrogen Receptor Degradation Activity Said test involves measuring the in vitro degradation activity of the compounds of the Table 1a. The measurements of the degradation activities were made using a breast cancer cell ERα in cell western assay as described hereunder. […] Integrated intensities in the green fluorescence and red fluorescence were measured to determine the levels of ERα and DNA respectively. […]
Give your result in % as a bare value.

1) Cc1cc(F)ccc1C1=C(c2ccc(C=C3CN(CCCF)C3)c(F)c2C)c2ccc(C(=O)O)cc2CCC1 [Example 30] = 91
2) Cc1cc(Cl)ccc1C1=C(c2ccc(C=C3CN(CCC(F)F)C3)cc2)c2ccc(C(=O)O)cc2CCC1 [Example 132] = 95
3) Cc1c(C2=C(c3ccc(C=C4CN(CCCF)C4)cc3)c3ccc(C(=O)O)cc3CCC2)ccc(F)c1F [Example 29] = 96

Request: Which % Degradation At 0.3 μM is reported with ERα (Homo sapiens, UniProt P03372) for this entry: O=C(O)c1ccc2c(c1)CCCC(c1cc(F)cc(C(F)(F)F)c1Cl)=C2c1ccc(C=C2CN(CCCF)C2)cc1 [Example 123] ?
Result: 94

Request: Now try O=C(O)c1ccc2c(c1)CCCC(c1ccc(F)cc1F)=C2c1ccc(C=C2CN(CCCF)C2)c(F)c1 [Example 53] .
Result: 94

Request: What would you report for Cc1cc(C2=C(c3ccc(Cl)cc3Cl)CCCc3cc(C(=O)O)ccc32)cc(C)c1C=C1CN(CCCF)C1.Cl [Example 104] ?
Result: 79

###

Target: ERα (Homo sapiens, UniProt P03372)
Construct: host or cells: MCF7
Assay: Estrogen receptor degradation activity: breast cancer cell ERα in cell western assay (MCF7 cells)
Format: cell-based
Details: 4 hours post compound addition, concentration which degrades 50% of the estrogen receptor, read-out: Degradation IC50
DC50 listing for selected compounds.
# output: bare number, implied unit nM

Below are worked cases with known answers.
1) Cc1cc(F)cc(C)c1C1=C(c2ccc(C=C3CN(CCCF)C3)cc2)c2ccc(C(=O)O)cc2CCC1 = 0.2
2) Cc1ccccc1C1=C(c2ccc(C=C3CN(CCCF)C3)cc2)c2ccc(C(=O)O)cc2CCC1 = 0.3
3) O=C(O)c1ccc2c(c1)CCCC(c1ccc(Cl)cc1F)=C2c1ccc(C=C2CN(CCCF)C2)cc1 = 0.2

Consider now this further compound.
Request: Hello, I am looking for reported DC50 with ERα (Homo sapiens, UniProt P03372) for Cc1c(F)ccc(C2=C(c3ccc(C=C4CN(CCC(F)F)C4)cc3)c3ccc(C(=O)O)cc3CCC2)c1C . Could you help?
Result: 1.6

###

Target: ERα (Homo sapiens, UniProt P03372)
Construct: host or cells: MCF7
Assay: Estrogen receptor degradation activity: breast cancer cell ERα in cell western assay (MCF7 cells)
Assay type: cell-based
Settings: 4 hours post compound addition, concentration which degrades 50% of the estrogen receptor, read-out: Degradation IC50
Description: Test: Estrogen Receptor Degradation Activity Said test involves measuring the in vitro degradation activity of the compounds of the Table 1a. The measurements of the degradation activities were made using a breast cancer cell ERα in cell western assay as described hereunder. […] Integrated intensities in the green fluorescence and red fluorescence were measured to determine the levels of ERα and DNA respectively. […]
The label criterion met is reserved for DC50 strictly under 1 nM; criterion not met covers values equal to or above it.

Here are 3 compounds together with their reported answers.
1. Cc1cc(C=C2CN(CCCF)C2)ccc1C1=C(c2ccc(Cl)cc2Cl)CCCc2cc(C(=O)O)ccc21.Cl [Example 93, hydrochloride] = criterion met
2. O=C(O)c1ccc2c(c1)CCCC(c1ccc(F)cc1F)=C2c1ccc(C=C2CN(CCCF)C2)c(F)c1 = criterion met
3. O=C(O)c1ccc2c(c1)CCCC(C1CC3CCC(C3)C1)=C2c1ccc(C=C2CN(CCCF)C2)cc1 (stereo not drawn) = criterion not met

Request: Identify whether the compound O=C(O)c1ccc2c(c1)CCCC(c1cccc3c1CCC3(F)F)=C2c1ccc(C=C2CN(CCC(F)F)C2)cc1 records DC50 below 1 nM.
Result: criterion not met

Request: Follow-up entry: Cc1c(C2=C(c3ccc(C=C4CN(CCC(F)F)C4)cc3)c3ccc(C(=O)O)cc3CCC2)ccc(F)c1F
Result: criterion met

Request: Note, next up: CC1CCc2cc(C(=O)O)ccc2C(c2ccc(C=C3CN(CCCF)C3)cc2)=C1c1ccc(Cl)cc1 (single isomer, unassigned) [Example 179]
Result: criterion not met

Request: # repeat for Cc1ccc(C2=C(c3ccc(C=C4CN(CCCF)C4)cc3)c3ccc(C(=O)O)cc3CCC2)c(C(F)(F)F)c1
Result: criterion met

Request: Next record, please: COc1ccc(C2=C(c3ccc(C=C4CN(CCCF)C4)cc3)c3ccc(C(=O)O)cc3CCC2)cc1C(F)(F)F
Result: criterion not met

Request: Same question, Cc1ccc(C2=C(c3ccc(C=C4CN(CCCF)C4)cc3)c3ccc(C(=O)O)cc3CCC2)c(Cl)c1 this time
Result: criterion met

Request: Repeat for the following compound: Cc1c(C2=C(c3ccc(C=C4CN(CCCF)C4)cc3)c3ccc(C(=O)O)cc3CCC2)ccc(Cl)c1F
Result: criterion met

Request: Repeat with O=C(O)c1ccc2c(c1)CCCC(c1ccc(F)c3c1CCC3)=C2c1ccc(C=C2CN(CCCF)C2)cc1
Result: criterion met

Request: And then Cc1c(F)ccc(C2=C(c3ccc(C=C4CN(CCCF)C4)cc3)c3ccc(C(=O)O)cc3CCC2)c1C , what is it?
Result: criterion met

Request: Param item: O=C(O)c1ccc2c(c1)CCCC(c1cc(C(F)(F)F)ccc1Cl)=C2c1ccc(C=C2CN(CCCF)C2)cc1
Result: criterion met

Request: Repeat with O=C(O)c1ccc2c(c1)CCCC(Cc1ccccc1)=C2c1ccc(C=C2CN(CCCF)C2)cc1
Result: criterion not met

###

# reported DC50; entries follow
Target: ERα (Homo sapiens)
Construct: host or cells: MCF7
Test: Estrogen receptor degradation activity: breast cancer cell ERα in cell western assay (MCF7 cells)
Assay type: cell-based
Conditions: 4 hours post compound addition, concentration which degrades 50% of the estrogen receptor, read-out: Degradation IC50
Reply numerically in nM, unit not repeated.

A selection of reference data follows.
1) O=C(O)c1ccc2c(c1)CCCC(c1ccc(C3CC3)cc1C(F)(F)F)=C2c1ccc(C=C2CN(CCCF)C2)cc1 = 0.4
2) Cc1c(Cl)ccc(C2=C(c3ccc(C=C4CN(CCCF)C4)cc3)c3ccc(C(=O)O)cc3CCC2)c1C = 0.5
3) Cc1cc(C=C2CN(CCCF)C2)cc(F)c1C1=C(c2ccc(Cl)cc2Cl)CCCc2cc(C(=O)O)ccc21.Cl [Example 66, hydrochloride] = 0.4
4) O=C(O)c1ccc2c(c1)CCCC(c1cc(C(F)(F)F)ccc1C(F)(F)F)=C2c1ccc(C=C2CN(CCCF)C2)cc1 = 0.2
5) O=C([O-])c1ccc2c(c1)CCCC(c1ccc(F)cc1F)=C2c1ccc(C=C2CN(CCCF)C2)cc1F.[Na+] = 0.3
6) Cl.O=C(O)c1ccc2c(c1)CCCC(c1ccc(Cl)cc1Cl)=C2c1ccc(C=C2CN(CCCF)C2)c(F)c1F [Example 80, hydrochloride] = 0.6

Continue with the molecule presented below.
Request: I'd like to know its DC50. The molecule in question is O=C(O)c1ccc2c(c1)CCCC(c1ccc(Cl)cc1)=C2c1ccc(C=C2CN(CCCF)C2)cc1
Result: 0.5
